- experimental_system: HLA-A*02:01 (Homo sapiens, UniProt P04439, D140Y/D185E/D98H/E176V/E277Q/G131W/G231S/I119V/I121R/I166T/I218V/L300P/L318F/N151K/N90K/P208A/P217A/Q86G/Q94H/R138H/R169H/T345S)
- assay_summary: MHC binding assay (UV-ligand exchange, β2m ELISA, peptide exchange yield)
- measurement_parameters: binding of HLA-class I restricted peptides to HLA-A*02:01, UV-ligand exchange
quantity: Peptide exchange (MHC class I binding score, peptide exchange yield)

Examples with their reported Peptide exchange (MHC class I binding score, peptide exchange yield) follow.
168 (KILDADIQL; listed as Homo sapiens) [compound 168] = “++++” (≥75% = ++++)
568 (TLYDIAHTPGV; listed as Homo sapiens) [compound 568] = “++++” (≥75% = ++++)
286 (YLFPGIPEL; listed as Homo sapiens) [compound 286] = “+++” (≥50 = +++)
148 (ALNPEIVSV; listed as Homo sapiens) [compound 148] = “++” (≥20% = ++)

Request: Using the record for 300 (ALLGQTFSL; listed as Homo sapiens) [compound 300] , state its measured Peptide exchange (MHC class I binding score, peptide exchange yield).
Result: “+++” (≥50 = +++)

Request: Using the record for 469 (YLASDEITTV; listed as Homo sapiens) [compound 469] , state its measured Peptide exchange (MHC class I binding score, peptide exchange yield).
Result: “+++” (≥50 = +++)

Request: Using the record for 357 (SMHDLVLQV; listed as Homo sapiens) [compound 357] , state its measured Peptide exchange (MHC class I binding score, peptide exchange yield).
Result: “+++” (≥50 = +++)

Request: Using the record for 592 (RLLSAAENFL; listed as Homo sapiens) [compound 592] , state its measured Peptide exchange (MHC class I binding score, peptide exchange yield).
Result: “+++” (≥50 = +++)

Request: Using the record for 124 (ALYETELADA; listed as Homo sapiens) [compound 124] , state its measured Peptide exchange (MHC class I binding score, peptide exchange yield).
Result: “++” (≥20% = ++)

Request: Using the record for 250 (ALSEEGLLVYL; listed as Homo sapiens) [compound 250] , state its measured Peptide exchange (MHC class I binding score, peptide exchange yield).
Result: “+++” (≥50 = +++)

Request: Using the record for 393 (GLLDTQTSQVLTA; listed as Homo sapiens) [compound 393] , state its measured Peptide exchange (MHC class I binding score, peptide exchange yield).
Result: “++” (≥20% = ++)

Request: Using the record for 150 (RLWEEGEELEL; listed as Homo sapiens) [compound 150] , state its measured Peptide exchange (MHC class I binding score, peptide exchange yield).
Result: “+++” (≥50 = +++)

Request: Using the record for 531 (YTLPIASSIRL; listed as Homo sapiens) [compound 531] , state its measured Peptide exchange (MHC class I binding score, peptide exchange yield).
Result: “+++” (≥50 = +++)

Request: Using the record for 609 (ALWKQLLEL; listed as Homo sapiens) [compound 609] , state its measured Peptide exchange (MHC class I binding score, peptide exchange yield).
Result: “+++” (≥50 = +++)

Request: Using the record for 224 (TLIDAQWVL; listed as Homo sapiens) [compound 224] , state its measured Peptide exchange (MHC class I binding score, peptide exchange yield).
Result: “+++” (≥50 = +++)

Request: Using the record for 279 (ALWGGTQPLL; listed as Homo sapiens) [compound 279] , state its measured Peptide exchange (MHC class I binding score, peptide exchange yield).
Result: “++” (≥20% = ++)

Request: Using the record for 165 (SLLDEIRAV; listed as Homo sapiens) [compound 165] , state its measured Peptide exchange (MHC class I binding score, peptide exchange yield).
Result: “+++” (≥50 = +++)

Request: Using the record for 6 (VLVSDGVHSV; listed as Homo sapiens) [compound 6] , state its measured Peptide exchange (MHC class I binding score, peptide exchange yield).
Result: “+++” (≥50 = +++)
